# experiment: NCI Yeast Anticancer Drug Screen. Data for the bub3 strain (AID 167)
# conditionsUsed: S. cerevisiae bub3 mutant strain, at 50.0 µM, stronger effect = higher value
About 79,000 compounds went through this panel and 15% of them were active in at least one assay; those are over-represented in the sample as a whole.
measurementKind: growth inhibition (%)
Numeric answer only, unit % assumed.

# annotated cases, reported growth inhibition shown
molecule: COc1cc(C2SCC(=O)N2c2nnc(C(F)(F)F)s2)cc(OC)c1OC (stereo not drawn)
growth inhibition / %: 43.1
--
molecule: Cc1ccc(Nc2nc3c(=O)n(C)c(=O)n(C)c3nc2Nc2ccc(C)cc2)cc1
growth inhibition / %: 94.5
--
molecule: Cc1cccc2c(C(O)CBr)cc(-c3ccc(Cl)cc3)nc12 (stereo not drawn)
growth inhibition / %: 92.5

Asked: Query: growth inhibition; subject: c1ccc2c(c1)NC(NC1Nc3ccccc3N1)N2
Given back: 10.8

Asked: So what does the record say about growth inhibition for O=C1C2C(C(=O)N1c1ccc(OCc3ccccc3)cc1)C1c3ccccc3C2C2CCCCN21 (stereo not drawn) ?
Given back: 83.3

Asked: GET /values?readout=growth inhibition&item= COc1cc(/C=C2\CCc3ccccc3C2=O)cc(OC)c1OC
Given back: 74.3
